B1: TMEM175 (parent)
chain: QTSAFARQPRDELERVRVSCTIIF

Variants of: B1
Test: protein stability index of a GFP-peptide fusion (GPS, HEK-293T) (PSI 1-6); higher = more stable;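 also: lentivirally expressed fusions sorted by FACS into six bins by GFP to DsRed ratio, PSI derived from sequencing read proportions per bin multiplied by bin number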
Settings: c terminus: a fixed tail appended
test-readout: protein stability index

{"mutant": "L13T", "meas-value": 1.99}
{"mutant": "S3N", "meas-value": 2.02}
{"mutant": "Q8T", "meas-value": 2}

Where do the numbers come from? From the supplement of paper PMC10567573.
